Target: T1, Cynomolgus CXCR2 (cynomolgus, UniProt Q28519 3-353 (rhesus entry))
T1 chain: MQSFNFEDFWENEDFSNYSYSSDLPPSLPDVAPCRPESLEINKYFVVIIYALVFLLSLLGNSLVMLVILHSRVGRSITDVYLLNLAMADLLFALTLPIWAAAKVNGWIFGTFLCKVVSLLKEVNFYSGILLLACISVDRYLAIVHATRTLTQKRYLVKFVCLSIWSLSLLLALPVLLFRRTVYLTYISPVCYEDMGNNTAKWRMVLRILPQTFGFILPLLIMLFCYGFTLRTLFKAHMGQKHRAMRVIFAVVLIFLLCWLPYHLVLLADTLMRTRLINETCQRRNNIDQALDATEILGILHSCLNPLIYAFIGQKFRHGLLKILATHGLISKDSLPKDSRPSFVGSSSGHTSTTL
Test: cell-based or functional assay
reportedMetric: FLIPR IC50, GRO-α induced intracellular calcium release
Answer format reminder: number followed by unit.

Return reported FLIPR IC50, GRO-α induced intracellular calcium release; argument: CXCR20031 (bispecific antibody, not shown: small tags and cut ends) EVQLVESGGELVQPGGSLRLSCAASGSILTINAMGWYRQAPGKQRELVVRRTRGGSTTYQDSVKGRFTISADIAKKTMYLQMNSLKPEDTAVYYCMLDDRGGVYWGQGTQVTVSSGGGGSGGGGSGGGGSGGGGSGGGGSGGGGSGGGGSEVQLVESGGGLVQPGGSLRLSCVASGRIFSSNAMGWFRQAPGKEREFVAAITWRSGGSAYYADSAKGRFTISRDNAKNTVYLQMNSLKPEDTAVYYCAAGGSSWLSFPPDYWGQGTQVTVSS
4.26 nM

Return reported FLIPR IC50, GRO-α induced intracellular calcium release; argument: CXCR20026 (bispecific antibody, not shown: small tags and cut ends) EVQLVESGGGLVQPGGSLRLSCVASGRIFSSNAMGWFRQAPGKEREFVAAITWRSGGSAYYADSAKGRFTISRDNAKNTVYLQMNSLKPEDTAVYYCAAGGSSWLSFPPDYWGQGTQVTVSSGGGGSGGGGSGGGGSGGGGSGGGGSGGGGSGGGGSEVQLVESGGGLVQAGESLRLSCAASGSTFDFKVMGWYRQPPGKQREGVAAIRLSGNMHYAESVKGRFTISKANAKNTVYLQMNSLRPEDTAVYYCKVNIRGQDYWGQGTQVTVSS
9.1 nM

Return reported FLIPR IC50, GRO-α induced intracellular calcium release; argument: CXCR20036 (other, not shown: small tags and cut ends) EVQLVESGGGLVQAGGSLTLSCAVSGSTFRINTMGWYRRAPGKQRELVAARDRGGYINYVDSVKGRFTVSRDNAKPTMYLQMNSLKPEDTAVYYCHAGTQDRTGRNFDRWGQGTQVTVSSGGGGSGGGGSGGGGSGGGGSGGGGSGGGGSGGGGSEVQLVESGGGLVQAGGSLRLSCAASGRTFSDYAMGWFRQAPGKEREFVAAITWNGGRVFYTASVKGRFTISRDNAKNTMYLQMNSLKPEDTAVYYCAADKDRRTDYLGHPVAYWGQGTQVTVSS
4.27 nM

Return reported FLIPR IC50, GRO-α induced intracellular calcium release; argument: CXCR20029 (other, not shown: small tags and cut ends) EVQLVESGGGLVQPGGSLRLSCVASGRIFSSNAMGWFRQAPGKEREFVAAITWRSGGSAYYADSAKGRFTISRDNAKNTVYLQMNSLKPEDTAVYYCAAGGSSWLSFPPDYWGQGTQVTVSSGGGGSGGGGSGGGGSGGGGSGGGGSGGGGSGGGGSEVQLVESGGGLVQAGGSLTLSCAVSGSTFRINTMGWYRRAPGKQRELVAARDRGGYINYVDSVKGRFTVSRDNAKPTMYLQMNSLKPEDTAVYYCHAGTQDRTGRNFDRWGQGTQVTVSS
10.1 nM
